test: chemical genetic growth profiling, strain panel (AID 1159580);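 further: tested at 20 µM; growth read once vehicle control cultures reached saturation at 30 °C; 1 = growth at the plate median or of vehicle wells; lower values mean less growth of the strain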; conditions: S. cerevisiae deletion strains, growth OD, locus YOR270C, strain vph1, stronger effect = lower value
In all, about 5,500 compounds went through this assay and about 2,000 (36%) were called active. About 18% were inconclusive and are not listed. The list shows a part of the results.
For each of the compounds below, state its normalized growth.
Just the number.

# input // query normalized growth value for entry COc1cc2c(cc1OC)C(=O)C(CC1CCN(Cc3ccccc3)CC1)C2 (configuration not stated)
# output 0.608

# input // query normalized growth value for entry O=C(O)C1CC([C@@H]2CCCCN2)CN2CCCCC12 (some centres not stated)
# output 0.989

# input // query normalized growth value for entry CC(C)(CO)C(O)C(=O)NCCCO (configuration not stated)
# output 1.03

# input // query normalized growth value for entry O=C(Cc1ccccc1)NO
# output 0.936

# input // query normalized growth value for entry CCCCOc1ccc(CC(=O)NO)cc1
# output 0.989

# input // query normalized growth value for entry C[N+](C)(C)CC(=O)[O-]
# output 0.956

# input // query normalized growth value for entry c1ccc(CN(CC2=NCCN2)c2ccccc2)cc1
# output 0.988

###

test: chemical genetic growth profiling, strain panel (AID 1159580);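 further: tested at 20 µM; growth read once vehicle control cultures reached saturation at 30 °C; 1 = growth at the plate median or of vehicle wells; lower values mean less growth of the strain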; settings: S. cerevisiae deletion strains, growth OD, locus YOR061W, strain CKA2, stronger effect = lower value
In all, about 5,500 compounds went through this assay and about 2,000 (36%) were called active. Another 18% or so got no clear call; they are omitted. The list shows a part of the results.
For each of the molecules below, state its normalized growth.

# input // query normalized growth value for entry O=C(C=C(O)c1ccc(Br)cc1)C(=O)Nc1ccccc1
# output 0.0904 (active)

# input // query normalized growth value for entry CCc1nc(N)nc(N)c1-c1ccc(Cl)cc1
# output 1.01 (inactive)

# input // query normalized growth value for entry O=C1CC(c2ccccc2)Oc2ccccc21 (stereo not given)
# output 0.989 (inactive)

# input // query normalized growth value for entry Oc1ccc(O)cc1
# output 1.01 (inactive)

# input // query normalized growth value for entry O=C(Nc1cc(Cl)cc(Cl)c1)Nc1cc(-c2cccs2)[nH]n1
# output 0.891 (inactive)

# input // query normalized growth value for entry C[C@@H]1O[C@@H](O[C@H]2[C@@H](Oc3cc(O)c4c(c3)O[C@H](c3ccc(O)cc3)CC4=O)O[C@H](CO)[C@@H](O)[C@@H]2O)[C@H](O)[C@H](O)[C@H]1O
# output 0.967 (inactive)

# input // query normalized growth value for entry C=C1CC[C@H](O)C/C1=C/C=C1\CCC[C@]2(C)C([C@H](C)/C=C/[C@H](C)C(C)C)CC[C@@H]12 (stereo not given in full)
# output 0.953 (inactive)

# input // query normalized growth value for entry CCc1ccc(CCOc2ccc(CC3SC(=O)NC3=O)cc2)nc1 (stereo not given)
# output 0.999 (inactive)

# input // query normalized growth value for entry Oc1c(Cl)c(Cl)c(Cl)c(Cl)c1Cl
# output 0.826 (active)

# input // query normalized growth value for entry NC(N)=Nc1nc(-c2cc(Cl)sc2Cl)cs1
# output 0.983 (inactive)

# input // query normalized growth value for entry COc1ccc(NC(=O)O/N=C(/N)c2ccc(Oc3c(Cl)cncc3Cl)cc2)cc1
# output 0.87 (inactive)

# input // query normalized growth value for entry COc1ccc(C(=O)c2ccccc2)c(O)c1
# output 0.936 (inactive)

# input // query normalized growth value for entry C/C=C(/C(=C/C)c1ccc(O)cc1)c1ccc(O)cc1
# output 0.879 (active)

# input // query normalized growth value for entry CC1(O)/C=C/C=C(\CO)C2CC(C)(C)C2(O)CC1 (stereo not given)
# output 1.02 (inactive)

# input // query normalized growth value for entry C=CC1=C(C(=O)O)N2C(=O)[C@@H](NC(=O)/C(=N/O)c3csc(N)n3)[C@H]2SC1
# output 0.994 (inactive)

# input // query normalized growth value for entry O=[N+]([O-])c1cc(C(F)(F)F)ccc1-n1ccc(-c2cccs2)n1
# output 0.827 (inactive)

# input // query normalized growth value for entry CC(C)=CCc1c(O)cc(C)oc1=O
# output 0.991 (inactive)

# input // query normalized growth value for entry C[N+](C)(C)CC(=O)[O-]
# output 1 (inactive)

# input // query normalized growth value for entry CCOC(=O)/C=C(\C)OP(=O)(OC)OC
# output 0.961 (inactive)

# input // query normalized growth value for entry COc1ccc(C(=O)c2ccccc2O)c(O)c1
# output 0.945 (inactive)

# input // query normalized growth value for entry N#C/C(=C\c1ccccc1Sc1ccc(Cl)cc1)S(=O)(=O)c1ccccn1
# output 0.851 (inactive)

# input // query normalized growth value for entry COC(=O)[C@@H]1C(O)CC[C@H]2CN3CCc4c([nH]c5ccccc45)[C@@H]3C[C@@H]21 (stereo not given in full)
# output 0.996 (inactive)

# input // query normalized growth value for entry Cc1ccc2c(c1)CC[C@H]1CC(=O)CC[C@]21C
# output 0.998 (inactive)

# input // query normalized growth value for entry NC(=O)N1c2ccccc2CC(=O)c2ccccc21
# output 0.994 (inactive)

# input // query normalized growth value for entry Cc1ccc(O)cc1
# output 1.02 (inactive)

# input // query normalized growth value for entry COC(=O)C1[C@H]2C[C@H]3c4[nH]c5ccccc5c4CCN3C[C@@H]2CC[C@@H]1O (stereo not given in full)
# output 1.01 (inactive)

# input // query normalized growth value for entry COC(=O)[C@H]1[C@H]2C[C@H]3c4[nH]c5ccccc5c4CCN3C[C@H]2CC[C@@H]1O
# output 1.01 (inactive)

# input // query normalized growth value for entry CC(C)[N+](C)(CCOC(=O)C1c2ccccc2Oc2ccccc21)C(C)C
# output 1.01 (inactive)

# input // query normalized growth value for entry CC(C)N(C(=O)CCl)c1ccccc1
# output 1.03 (inactive)

# input // query normalized growth value for entry C[N+](C)(C)CCOP(=O)([O-])OP(=O)(O)OC[C@H]1OC(n2ccc(N)nc2=O)[C@H](O)[C@@H]1O (stereo not given in full)
# output 1 (inactive)

# input // query normalized growth value for entry OCc1ccccc1O[C@@H]1O[C@H](CO)[C@@H](O)[C@H](O)[C@H]1O
# output 0.956 (inactive)

# input // query normalized growth value for entry O=C1C[C@@H](c2ccc(O)cc2)Oc2cc(O)cc(O)c21
# output 1.02 (inactive)

# input // query normalized growth value for entry Cn1c([N+](=O)[O-])cnc1/C=C(\C#N)C(=O)Nc1ccc(F)cc1
# output 0.168 (active)

# input // query normalized growth value for entry COc1ccc2c(c1)[C@@]1(C)CCC(=O)C[C@H]1CC2
# output 1 (inactive)

# input // query normalized growth value for entry O=C(Oc1cc(Cl)c(Cl)cc1Cl)C1c2ccccc2Oc2ccccc21
# output 0.995 (inactive)

# input // query normalized growth value for entry COC1C(O)C(O)C(O)[C@@H](O)C1O (stereo not given in full)
# output 1.02 (inactive)

# input // query normalized growth value for entry S=C(Nc1cc(-c2cccs2)[nH]n1)Nc1ccccc1Cl
# output 0.859 (inactive)

# input // query normalized growth value for entry Cn1cncc1S(=O)(=O)/C(C#N)=C/c1ccccc1Sc1ccc(Cl)cc1
# output 0.758 (inactive)

# input // query normalized growth value for entry N#Cc1c(Cl)c(Cl)c(Cl)c(C#N)c1Cl
# output 1.01 (inactive)

# input // query normalized growth value for entry CN1Cc2c(ccc3c2OCO3)C2C(O)Cc3cc4c(cc3C21)OCO4 (stereo not given)
# output 1 (inactive)

# input // query normalized growth value for entry CC(C)CC1C(=O)N2CCC[C@H]2C2(O)O[C@](NC(=O)C3C=C4c5cccc6[nH]c(Br)c(c56)C[C@H]4N(C)C3)(C(C)C)C(=O)N12 (stereo not given in full)
# output 0.98 (inactive)

# input // query normalized growth value for entry CC1(C)S[C@@H]2[C@H](NC(=O)[C@H](NC(=O)N3CCNC3=O)c3ccccc3)C(=O)N2C1C(=O)O (stereo not given in full)
# output 1 (inactive)

# input // query normalized growth value for entry COc1ccc([C@@H]2CC(=O)c3c(O)cc(O)cc3O2)cc1O
# output 1 (inactive)

# input // query normalized growth value for entry CCCCCC(C)N (stereo not given)
# output 1.02 (inactive)

# input // query normalized growth value for entry C/C(=N/NC(N)=S)c1ccccn1
# output 0.891 (inactive)

###

assay: chemical genetic growth profiling, strain panel (AID 1159580);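 further: tested at 20 µM; growth read once vehicle control cultures reached saturation at 30 °C; 1 = growth at the plate median or of vehicle wells; lower values mean less growth of the strain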; settings: S. cerevisiae deletion strains, growth OD, locus YJL164C, strain tpk1, stronger effect = lower value
Hit rate of the full screen: of about 5,500 compounds, about 2,000 (36%) were called active. Another 18% or so got no clear call; they are omitted. This is one part of the list.
For each of the molecules below, state its normalized growth.

# input // query normalized growth value for entry CC(C)(N=NC(C)(C)C(=N)N)C(=N)N
# output 1.02 (inactive)

# input // query normalized growth value for entry CCc1ccc(CCOc2ccc(CC3SC(=O)NC3=O)cc2)nc1 (stereo unspecified)
# output 0.991 (inactive)

# input // query normalized growth value for entry C[C@@H](N)CO
# output 1.01 (inactive)

# input // query normalized growth value for entry CN1CCCC(n2nc(Cc3ccc(Cl)cc3)c3ccccc3c2=O)CC1 (stereo unspecified)
# output 0.964 (inactive)

# input // query normalized growth value for entry CC[C@@H](CO)NCCN[C@@H](CC)CO
# output 1.02 (inactive)

# input // query normalized growth value for entry CC(=O)O[C@H]1C(=O)[C@@]2(C)C([C@H](OC(=O)c3ccccc3)[C@]3(O)C[C@H](O)C(C)=C1C3(C)C)[C@]1(OC(C)=O)CO[C@@H]1C[C@@H]2O (stereo partly specified)
# output 1 (inactive)

# input // query normalized growth value for entry COC(=O)C1=COC(OC2OC(CO)C(O)C(O)C2O)C2C(C)CC(=O)C12O (stereo unspecified)
# output 0.946 (inactive)

# input // query normalized growth value for entry CC(=O)O[C@@](C)(CCC=C(C)C)C1CC=C(C)CC1 (stereo partly specified)
# output 0.994 (inactive)

# input // query normalized growth value for entry N#Cc1c(Cl)c(Cl)c(Cl)c(C#N)c1Cl
# output 0.0766 (active)

# input // query normalized growth value for entry O=C(O)c1cc(=O)c2ccc(Cl)cc2[nH]1
# output 1.01 (inactive)

# input // query normalized growth value for entry COc1ccc(-c2coc3c(O)c(OC)ccc3c2=O)cc1
# output 0.941 (inactive)
